Assay: MHET released, HPLC; higher = more MHET released; extreme values may be limits of the assay
Details: PET substrate: cryPow; 70 °C; pH 5.5; 24 h
Property: MHET released (mM)
// note: answer is a bare numeric in mM

In: Name the recorded MHET released for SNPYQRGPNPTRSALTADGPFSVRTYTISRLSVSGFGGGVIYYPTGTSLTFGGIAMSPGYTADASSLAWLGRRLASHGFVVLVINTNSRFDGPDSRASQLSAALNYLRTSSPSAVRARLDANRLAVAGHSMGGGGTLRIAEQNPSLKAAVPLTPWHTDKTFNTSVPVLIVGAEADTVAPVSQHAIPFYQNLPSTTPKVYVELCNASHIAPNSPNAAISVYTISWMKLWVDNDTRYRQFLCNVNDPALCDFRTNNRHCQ [LCC-ICCG RIP] .
Out: 0.11

In: What about this sequence? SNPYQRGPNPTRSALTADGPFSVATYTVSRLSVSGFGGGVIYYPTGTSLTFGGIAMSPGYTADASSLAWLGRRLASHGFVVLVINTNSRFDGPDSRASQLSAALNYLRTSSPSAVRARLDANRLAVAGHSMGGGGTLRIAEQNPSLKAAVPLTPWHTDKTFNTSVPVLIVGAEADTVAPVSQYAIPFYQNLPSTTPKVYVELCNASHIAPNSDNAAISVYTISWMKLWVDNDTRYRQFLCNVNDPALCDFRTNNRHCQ [LCC-A2]
Out: 0.168

* * *

Test: PET hydrolysis product formed (TPA+MHET+BHET, UV-Vis) per mg enzyme (mmol/mg enzyme); higher = more PET depolymerisation activity; extreme values may be limits of the assay
Settings: PET substrate: aFilm; 60 °C; pH 5.5; 24 h
Please provide measured PET hydrolysis product formed for the entries that follow.
Returns: the value as a bare number; no unit string appended.

In: Give its PET hydrolysis product formed value. Item: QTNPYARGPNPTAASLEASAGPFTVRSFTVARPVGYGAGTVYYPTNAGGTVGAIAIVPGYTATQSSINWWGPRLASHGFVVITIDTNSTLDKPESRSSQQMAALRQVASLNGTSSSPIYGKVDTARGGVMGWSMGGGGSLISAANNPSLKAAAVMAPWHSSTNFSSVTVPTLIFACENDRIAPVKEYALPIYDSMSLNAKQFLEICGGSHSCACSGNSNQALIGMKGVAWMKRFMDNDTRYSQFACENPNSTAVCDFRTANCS [HotPETase]
Out: 0.126

In: Query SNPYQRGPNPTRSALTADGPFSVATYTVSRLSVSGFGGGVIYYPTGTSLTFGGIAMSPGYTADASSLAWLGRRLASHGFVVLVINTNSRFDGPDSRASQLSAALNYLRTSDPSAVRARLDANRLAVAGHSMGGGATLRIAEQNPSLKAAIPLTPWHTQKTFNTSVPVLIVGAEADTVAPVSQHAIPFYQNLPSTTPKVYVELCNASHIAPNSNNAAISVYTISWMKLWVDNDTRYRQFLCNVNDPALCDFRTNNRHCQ [LCC-ICCG DAQI] next
Out: 0.125

In: Cool, now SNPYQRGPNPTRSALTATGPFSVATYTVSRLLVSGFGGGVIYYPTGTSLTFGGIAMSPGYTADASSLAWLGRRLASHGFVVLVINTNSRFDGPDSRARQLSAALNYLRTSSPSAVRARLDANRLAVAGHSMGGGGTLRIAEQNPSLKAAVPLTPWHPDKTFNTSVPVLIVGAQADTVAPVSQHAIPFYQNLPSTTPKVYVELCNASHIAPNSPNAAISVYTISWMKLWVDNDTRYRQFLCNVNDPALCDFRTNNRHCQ [LCC-ICCG I6M]
Out: 0.147

In: Try this sequence next: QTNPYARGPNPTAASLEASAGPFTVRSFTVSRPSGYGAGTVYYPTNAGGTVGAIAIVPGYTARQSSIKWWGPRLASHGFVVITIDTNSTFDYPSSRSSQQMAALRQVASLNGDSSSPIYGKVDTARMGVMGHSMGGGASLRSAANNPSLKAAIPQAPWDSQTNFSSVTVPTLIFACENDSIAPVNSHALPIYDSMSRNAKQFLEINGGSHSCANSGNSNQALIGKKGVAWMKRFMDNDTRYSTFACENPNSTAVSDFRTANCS [DuraPETase]
Out: 0

* * *

Experiment: PET hydrolysis product formed (TPA+MHET+BHET, UV-Vis) per mg enzyme (mmol/mg enzyme); higher = more PET depolymerisation activity; extreme values may be limits of the assay
Settings: PET substrate: aFilm; 70 °C; pH 7.5; 2 h
Property: PET hydrolysis product formed
Could you respond with only the numeric value?

In: // PET hydrolysis product formed lookup, key: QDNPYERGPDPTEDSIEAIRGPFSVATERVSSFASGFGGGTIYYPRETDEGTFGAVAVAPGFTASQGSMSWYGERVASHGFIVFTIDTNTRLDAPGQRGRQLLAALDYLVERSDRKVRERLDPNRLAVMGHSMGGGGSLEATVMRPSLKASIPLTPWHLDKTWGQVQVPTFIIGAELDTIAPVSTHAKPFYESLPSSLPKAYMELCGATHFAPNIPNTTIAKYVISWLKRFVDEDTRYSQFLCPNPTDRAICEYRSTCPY [Cut190*SS]
Out: 0.00376

In: Proceed to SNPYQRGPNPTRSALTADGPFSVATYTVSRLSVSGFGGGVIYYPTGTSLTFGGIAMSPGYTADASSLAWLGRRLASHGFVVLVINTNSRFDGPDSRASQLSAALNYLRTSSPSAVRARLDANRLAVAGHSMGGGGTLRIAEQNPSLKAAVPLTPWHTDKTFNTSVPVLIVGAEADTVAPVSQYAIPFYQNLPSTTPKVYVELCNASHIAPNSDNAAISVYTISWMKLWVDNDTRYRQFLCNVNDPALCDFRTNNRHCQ [LCC-A2]
Out: 0.418

* * *

Test: MHET released, HPLC; higher = more MHET released; extreme values may be limits of the assay
Conditions: PET substrate: aFilm; 70 °C; pH 7.5; 24 h
Property: MHET released (mM)
Hi! Could you send only the number? It should be in mM, unit omitted.

In: Which measured MHET released value corresponds to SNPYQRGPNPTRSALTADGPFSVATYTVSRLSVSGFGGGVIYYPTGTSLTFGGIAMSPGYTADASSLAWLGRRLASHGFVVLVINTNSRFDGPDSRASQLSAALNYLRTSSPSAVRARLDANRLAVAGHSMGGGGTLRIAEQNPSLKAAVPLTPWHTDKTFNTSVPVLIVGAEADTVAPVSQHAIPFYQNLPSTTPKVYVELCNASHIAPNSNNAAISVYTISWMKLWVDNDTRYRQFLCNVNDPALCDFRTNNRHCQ [LCC-ICCG] ?
Out: 4.35

* * *

Experiment: PET hydrolysis product formed (TPA+MHET+BHET, UV-Vis) per mg enzyme (mmol/mg enzyme); higher = more PET depolymerisation activity; extreme values may be limits of the assay
Details: PET substrate: aFilm; 60 °C; pH 5.5; 24 h
Consider the following sequences; for each one, report its PET hydrolysis product formed.
Respond numerically, and do not add a unit to the figure.

In: Give its PET hydrolysis product formed value. Item: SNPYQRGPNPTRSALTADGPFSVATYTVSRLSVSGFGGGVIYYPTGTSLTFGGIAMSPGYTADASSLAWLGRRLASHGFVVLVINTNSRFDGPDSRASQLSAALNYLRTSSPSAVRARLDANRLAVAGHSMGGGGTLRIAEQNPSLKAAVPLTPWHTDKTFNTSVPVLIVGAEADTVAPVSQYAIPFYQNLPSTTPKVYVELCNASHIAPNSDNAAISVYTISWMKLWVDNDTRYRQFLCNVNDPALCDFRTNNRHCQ [LCC-A2]
Out: 0.331

In: And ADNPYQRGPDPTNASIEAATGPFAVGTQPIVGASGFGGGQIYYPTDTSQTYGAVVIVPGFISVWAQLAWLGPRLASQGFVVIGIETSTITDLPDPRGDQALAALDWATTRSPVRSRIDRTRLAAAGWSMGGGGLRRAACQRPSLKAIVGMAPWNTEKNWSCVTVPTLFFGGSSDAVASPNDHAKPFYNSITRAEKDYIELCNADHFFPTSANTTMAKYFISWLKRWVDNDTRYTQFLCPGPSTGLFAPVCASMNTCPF [CaPETaseM9] ?
Out: 0.0213

* * *

Would you mind telling me the reported BHET released of each entry?
Experiment: BHET released, HPLC; higher = more BHET released; extreme values may be limits of the assay
Conditions: PET substrate: aFilm; 70 °C; pH 7.5; 24 h

In: Consider the sequence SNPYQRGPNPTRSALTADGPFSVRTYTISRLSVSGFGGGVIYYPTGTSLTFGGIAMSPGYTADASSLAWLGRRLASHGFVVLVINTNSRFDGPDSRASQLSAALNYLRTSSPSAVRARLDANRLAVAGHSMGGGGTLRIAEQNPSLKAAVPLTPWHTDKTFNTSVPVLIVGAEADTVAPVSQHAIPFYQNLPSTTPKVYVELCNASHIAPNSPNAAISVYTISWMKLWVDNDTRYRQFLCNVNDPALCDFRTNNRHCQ [LCC-ICCG RIP] and give its measured BHET released.
Out: 0.0465 mM

In: Quick one: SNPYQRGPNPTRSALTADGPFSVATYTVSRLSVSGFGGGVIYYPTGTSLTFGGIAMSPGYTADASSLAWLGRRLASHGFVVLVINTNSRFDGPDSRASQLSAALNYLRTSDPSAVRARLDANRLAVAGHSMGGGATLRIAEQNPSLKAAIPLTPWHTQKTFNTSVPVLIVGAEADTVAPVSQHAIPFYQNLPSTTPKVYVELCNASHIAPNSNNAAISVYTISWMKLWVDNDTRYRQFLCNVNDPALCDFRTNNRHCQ [LCC-ICCG DAQI]
Out: 0.143 mM

In: Now the sequence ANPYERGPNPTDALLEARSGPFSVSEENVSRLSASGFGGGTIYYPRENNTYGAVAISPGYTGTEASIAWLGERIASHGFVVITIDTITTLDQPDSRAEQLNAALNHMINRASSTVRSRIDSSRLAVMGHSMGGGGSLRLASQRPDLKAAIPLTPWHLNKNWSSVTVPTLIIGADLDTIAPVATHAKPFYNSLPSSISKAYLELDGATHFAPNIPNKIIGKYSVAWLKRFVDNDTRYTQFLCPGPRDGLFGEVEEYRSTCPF [TfCut2]
Out: 0 mM

In: What do you have for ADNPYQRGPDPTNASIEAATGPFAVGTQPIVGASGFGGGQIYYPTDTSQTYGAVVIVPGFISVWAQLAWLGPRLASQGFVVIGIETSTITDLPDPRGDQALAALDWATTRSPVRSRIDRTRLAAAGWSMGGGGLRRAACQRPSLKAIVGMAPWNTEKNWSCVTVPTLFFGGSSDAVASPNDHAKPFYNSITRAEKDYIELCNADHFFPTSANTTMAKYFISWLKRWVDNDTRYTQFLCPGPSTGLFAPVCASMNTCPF [CaPETaseM9] ?
Out: 0 mM

In: Next up: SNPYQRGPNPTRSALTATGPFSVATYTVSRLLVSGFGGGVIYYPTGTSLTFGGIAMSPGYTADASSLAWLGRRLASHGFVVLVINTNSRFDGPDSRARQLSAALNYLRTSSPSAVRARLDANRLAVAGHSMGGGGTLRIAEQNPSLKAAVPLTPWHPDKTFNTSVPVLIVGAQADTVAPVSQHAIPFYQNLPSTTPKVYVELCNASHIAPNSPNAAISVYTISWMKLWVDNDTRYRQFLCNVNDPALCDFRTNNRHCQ [LCC-ICCG I6M]
Out: 0 mM

In: Query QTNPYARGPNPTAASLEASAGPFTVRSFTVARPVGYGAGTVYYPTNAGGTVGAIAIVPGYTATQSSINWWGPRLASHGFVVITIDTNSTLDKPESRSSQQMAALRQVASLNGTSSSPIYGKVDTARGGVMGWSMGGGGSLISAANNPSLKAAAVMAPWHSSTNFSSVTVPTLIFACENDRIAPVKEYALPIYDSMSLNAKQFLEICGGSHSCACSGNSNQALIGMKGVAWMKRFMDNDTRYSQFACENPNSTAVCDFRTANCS [HotPETase] next
Out: 0 mM
